Tested on: Vero E6 infected with SARS-CoV-2
Assay: inhibition of SARS-CoV-2 cytopathic effect; higher = more antiviral protection, active = above 15
Conditions: 833.33 nM; 48 h
readout_label: inhibition of SARS-CoV-2 cytopathic effect (%)
Expressed in %, but write only the number.

Here are 3 compounds together with their reported answers.
O=C([O-])C(O)[C@H](O)[C@@H](O)[C@H](O)[C@H](O)CO.O=C([O-])C(O)[C@H](O)[C@@H](O)[C@H](O)[C@H](O)CO.[Ca+2] (stereo partly specified) [calcium-gluceptate] ... -3.31
CC[C@H]1OC(=O)C[C@@H](O)[C@H](C)[C@@H](O[C@@H]2O[C@H](C)C[C@H](N(C)C)[C@H]2O)[C@@H](CC=O)C[C@@H](C)C(=O)/C=C/[C@]2(C)O[C@H]2[C@@H]1C ... 2.62
CN(C)[C@@H]1C(O)=C(C(N)=O)C(=O)[C@@]2(O)C(O)=C3C(=O)c4c(O)cccc4[C@@](C)(O)[C@H]3C[C@@H]12 ... -0.82

# inhibition of SARS-CoV-2 cytopathic effect (compound: CCOc1nc2cccc(C(=O)OC(C)OC(=O)OC3CCCCC3)c2n1Cc1ccc(-c2ccccc2-c2nn[nH]n2)cc1 (stereo unspecified) ) is -3.03

Documented inhibition of SARS-CoV-2 cytopathic effect of CCOc1cc(OCC)c(C(=O)CCC(=O)O)cc1OCC [trepibutone] : -0.1

For reference, reported inhibition of SARS-CoV-2 cytopathic effect for C[N+](C)(C)CCOC(=O)CCC(=O)OCC[N+](C)(C)C [succinylcholine-chloride] stands at 0.85

* * *

Each entry below carries its reported SARS-CoV-2 infection rate.
Tested on: Vero E6 infected with SARS-CoV-2
Test: SARS-CoV-2 infection rate relative to infected DMSO; higher = more infection, active = 60 or less
Settings: 24 h

Consider O=c1[nH]cc(F)c(=O)[nH]1 [5-fluorouracil] (0.833333 µM) . Its measured SARS-CoV-2 infection rate is 102% (inactive)

Just so you know, measured SARS-CoV-2 infection rate for Cc1nc2ccc(Oc3ccc(F)cc3)cc2c(=O)n1C[C@H]1CCCN(C(C)C)C1 (10 µM) came out at 76% (inactive)

Input CNC(=O)c1cccc2cc(Oc3ccnc4cc(OCC5(N)CC5)c(OC)cc34)ccc12 [lucitanib] (10 µM) . Output SARS-CoV-2 infection rate: 104% (inactive)

Note to self: SARS-CoV-2 infection rate recorded for CCOC(=O)C1=CCCC[C@H]1S(=O)(=O)Nc1ccc(F)cc1Cl [resatorvid] (10 µM) was 99.5% (inactive)

# SARS-CoV-2 infection rate of Fc1ccc2nc(CCC#Cc3ccccn3)cn2c1 [dipraglurant] (10 µM) = 103% (inactive)

* * *

Test system: Vero E6 infected with SARS-CoV-2
Test: inhibition of SARS-CoV-2 cytopathic effect; higher = more antiviral protection, active = above 15
Details: 100 nM; 48 h
inhibition of SARS-CoV-2 cytopathic effect values by entry
Give a bare numeral; the unit % is implied.

CCS(=O)(=O)c1ccc2oc(-c3ccc4ccccc4c3)nc2c1 ... -1.92

// field: inhibition of SARS-CoV-2 cytopathic effect; key: `COc1ccc(CN2CCN(C(c3ccc(F)cc3)c3ccc(F)cc3)CC2)c(OC)c1OC` ; value = -2.46

Memo: `CC(C)n1c(=O)n(C(=O)N[C@H]2C[C@H]3CC[C@@H](C2)N3C)c2ccccc21` , reported inhibition of SARS-CoV-2 cytopathic effect: -0.05

For reference, reported inhibition of SARS-CoV-2 cytopathic effect for `Cc1c(-c2cnccn2)ssc1=S` stands at 3.49

`O=c1[nH]c2ccccc2c(=O)n1CCCN1CCN(c2ccccc2)CC1` has a reported inhibition of SARS-CoV-2 cytopathic effect of -0.08

So, `COc1cc(OC)c(/C=C2/C(=O)Nc3ccccc32)c(OC)c1` ? Its inhibition of SARS-CoV-2 cytopathic effect was 2.55

Note to self: inhibition of SARS-CoV-2 cytopathic effect recorded for `CC(C)(C)C(=O)OCOC(=O)[C@@H]1N2C(=O)[C@@H](/N=C/N3CCCCCC3)[C@H]2SC1(C)C` was -0.38

get_value(item= `C[C@H](Cn1cnc2c(N)ncnc21)OCP(=O)(O)O` , readout=inhibition of SARS-CoV-2 cytopathic effect) returns -1.27

Input `Cc1cc(/C=C2\SC(=O)N(c3ccccc3)C2=O)c(C)n1-c1cccnc1` . Output inhibition of SARS-CoV-2 cytopathic effect: 1.31

Item: `Cc1cc(=O)n(-c2ccccc2)n1C` | inhibition of SARS-CoV-2 cytopathic effect: -1.01

* * *

Test system: Vero E6 infected with SARS-CoV-2
Assay: SARS-CoV-2 infection rate relative to infected DMSO; higher = more infection, active = 60 or less
Conditions: 24 h
Measured SARS-CoV-2 infection rate of individual entries
# unit: % | format: bare number

In the examples that follow, each entry is paired with its recorded SARS-CoV-2 infection rate.
CCC[C@@H]1C[C@@H](C(=O)N[C@@H]([C@H]2O[C@H](SC)[C@H](O)[C@@H](O)[C@H]2O)[C@@H](C)O)N(C)C1 [lincomycin] (10 µM) ... 105
CN1C[C@H](C(=O)N[C@]2(C)O[C@@]3(O)[C@@H]4CCCN4C(=O)[C@H](Cc4ccccc4)N3C2=O)C[C@@H]2c3cccc4[nH]cc(c34)C[C@H]21 [dihydroergotamine] (10 µM) ... 104
Cc1ccccc1-n1c(CF)nc2ccc(N)cc2c1=O [afloqualone] (10 µM) ... 96
COCC(=O)Nc1c(I)c(C(=O)NCC(O)CO)c(I)c(C(=O)N(C)CC(O)CO)c1I (configuration not stated) [iopromide] (10 µM) ... 106
FC(F)(F)c1ccc(N2CCNCC2)nc1Cl (10 µM) ... 89.5
O=C1NC(O)CCN1[C@@H]1O[C@H](CO)[C@@H](O)[C@H]1O (some centres not stated) [tetrahydrouridine] (10 µM) ... 103

// next entry
// recorded SARS-CoV-2 infection rate for C=CCN1CCc2cc(O)c(O)cc2[C@H](c2ccccc2)C1 (10 µM) : 95

* * *

Measured inhibition of SARS-CoV-2 cytopathic effect of individual entries
Tested on: Vero E6 infected with SARS-CoV-2
Assay: inhibition of SARS-CoV-2 cytopathic effect; higher = more antiviral protection, active = above 15
Conditions: 833.33 nM; 48 h

`CC(C)C[C@@H](N)C(=O)N[C@H]1C(=O)N[C@@H](CC(N)=O)C(=O)N[C@H]2C(=O)N[C@H]3C(=O)N[C@H](C(=O)N[C@H](C(=O)O)c4cc(O)cc(O)c4-c4cc3ccc4O)[C@H](O)c3ccc(c(Cl)c3)Oc3cc2cc(c3O[C@@H]2O[C@H](CO)[C@@H](O)[C@H](O)[C@H]2O[C@H]2C[C@](C)(N)[C@H](O)[C@H](C)O2)Oc2ccc(cc2Cl)[C@H]1O` yielded inhibition of SARS-CoV-2 cytopathic effect of 1.73% (inactive)

Summary for this molecule, O=C(O)CNC(=O)C(CS)Cc1ccccc1 (configuration not stated) : inhibition of SARS-CoV-2 cytopathic effect is -4.04% (inactive)

* * *

System: Vero E6 infected with SARS-CoV-2
Experiment: inhibition of SARS-CoV-2 cytopathic effect; higher = more antiviral protection, active = above 15
Details: 833.33 nM; 48 h
Listed next: entries and their corresponding inhibition of SARS-CoV-2 cytopathic effect.
The reply should contain only the number, in %.

Look over these answered cases.
COc1cccc(OC)c1-c1cc(C(=O)N[C@@H](CC(C)C)C(=O)O)nn1-c1ccnc2cc(Cl)ccc12 ... -0.64
COc1ccc(Cl)cc1[C@]1(F)C(=O)Nc2cc(C(F)(F)F)ccc21 [flindokalner] ... 1.03
O=C(c1ccc(Cl)o1)N1CC2CNCC2C1 (stereo not given) ... 1.83
CN1CCN(c2nc3ccccc3nc2Cl)CC1 ... 0.73
NC(=O)c1nc(Nc2ccccc2)sc1NC(=O)C1CCCCC1 ... -8.95
Cn1ncc(Cl)c1-c1cc(C(=O)N[C@H](CN)Cc2cccc(F)c2)sc1Cl ... -0.24
COc1cnc(NS(=O)(=O)c2ccc(N)cc2)nc1 [sulfameter] ... 0.46
CC(C)(C#N)c1cc(Cn2cncn2)cc(C(C)(C)C#N)c1 [anastrozole] ... -1.74
[O-][n+]1ccccc1[S-].[O-][n+]1ccccc1[S-].[Zn+2] [pyrithione-zinc] ... 29.9

// moving on: another record for inhibition of SARS-CoV-2 cytopathic effect
// assay Vero E6 infected with SARS-CoV-2, entry CCN(CC)Cc1nccn1-c1ccc([N+](=O)[O-])cc1C(=O)c1ccccc1Cl [nizofenone] , inhibition of SARS-CoV-2 cytopathic effect value = 0.15

* * *

Tested on: Vero E6 infected with SARS-CoV-2
Assay: inhibition of SARS-CoV-2 cytopathic effect; higher = more antiviral protection, active = above 15
Conditions: 1 nM; 48 h
Listing of entries alongside the reported inhibition of SARS-CoV-2 cytopathic effect.

COc1cc2ncnc(Nc3ccc(F)c(Cl)c3)c2cc1NC(=O)/C=C/CN1CCCCC1 [dacomitinib] ... -4.89% (inactive)
COc1ccc(O)c(C(C)(C)C)c1.COc1ccc(O)cc1C(C)(C)C [butylated-hydroxyanisole] ... -2.13% (inactive)
C[C@]12CCC(=O)C=C1[C@@H]1C[C@@H]1[C@H]1[C@@H]3[C@@H]4C[C@@H]4[C@@]4(CCC(=O)O4)[C@@]3(C)CC[C@@H]12 [drospirenone] ... -10.6% (inactive)
C/C(=C(\CCOP(=O)(O)O)SC(=O)c1ccccc1)N(C=O)Cc1cnc(C)nc1N [benfotiamine] ... 0.45% (inactive)
Cc1ccc2c(c1)[C@H]1CN(C)CC[C@H]1N2 [stobadine] ... 1.95% (inactive)

The compound listed as `O=CN1CCC(C(=O)NCCN2CCC(=C3c4ccccc4C=Cc4ccccc43)CC2)CC1` has a reported inhibition of SARS-CoV-2 cytopathic effect of 1.02% (inactive)

inhibition of SARS-CoV-2 cytopathic effect in this record for `CCCCCCCCCCCCCCCC(=O)C(F)(F)F` : -1.4% (inactive)
